Where these numbers come from: patent US9957266B2

System: native tau aggregates
Assay: TAU radioligand in vitro displacement assay ([^3H]T808, autoradiography)
Format: binding
Details: human AD brain sections; radioligand [^3H]T808 10 nM; cold compound 10 nM; 50 mM Tris pH 7.4, room temperature, 30 min
readout kind: % displacement of [^3H]T808 (10 nM) at 10 nM (%)

COc1ccc(-c2cn3ccc(N)cc3n2)cc1 ... 67
Nc1ccn2cc(-c3ccc(OCF)cc3)nc2c1 ... 51

P = Nc1ccn2cc(-c3ccc(OCCF)cc3)nc2c1
Q = Nc1ccn2cc(-c3ccc(OCCCF)cc3)nc2c1
In: Compare % displacement of [^3H]T808 (10 nM) at 10 nM: is it lower for P or for Q ? Respond with the label that goes with your answer.
Out: Q
